experiment: Pharmacokinetics in mice (plasma, UPLC/MS/MS); format: in vivo; settings: female, NMRI, mouse, po, p.os 50 mg/kg
Reported Endpoint: half-life at 6 h
Quick note: unit goes after the number.

Quick one: half-life at 6 h for CCCN1CCCCCc2cccc(c2)C[C@@H]([C@H](O)CNC(C)(C)c2cccc(OC)c2)NC(=O)c2cccc(c2)C1=O ?
53 min

====

target: recombinant P. falciparum PMX (Plasmodium falciparum); test: Recombinant P. falciparum PMX inhibition assay (fluorogenic substrate Rh2N); type: biochemical; details: recombinant PMX; read-out: PMX, nM (IC50)
Sequence (Q8IAS0 222-573): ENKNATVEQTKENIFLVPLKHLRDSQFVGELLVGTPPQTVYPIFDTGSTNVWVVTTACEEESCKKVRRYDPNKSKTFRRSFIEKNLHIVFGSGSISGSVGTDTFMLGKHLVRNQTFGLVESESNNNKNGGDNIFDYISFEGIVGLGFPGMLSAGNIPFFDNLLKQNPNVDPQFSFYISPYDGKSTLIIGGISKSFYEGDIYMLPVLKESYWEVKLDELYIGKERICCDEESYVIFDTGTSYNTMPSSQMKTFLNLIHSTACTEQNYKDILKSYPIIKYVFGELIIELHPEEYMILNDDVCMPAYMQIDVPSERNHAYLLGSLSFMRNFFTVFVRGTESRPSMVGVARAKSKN
Assign IC50 to each entry below.
Numbers only, in nM.

Some solved cases for reference:
Compound Structure: CCCN(CCC)C(=O)c1cccc(C(=O)N[C@@H](Cc2ccccc2)[C@H](O)CNC(C)(C)c2cccc(OC)c2)c1
Scale Unit: nM
IC50: 6.2

Compound Structure: CCCN1CCCCc2cccc(c2)C[C@@H]([C@H](O)CNC(C)(C)c2cccc(OC)c2)NC(=O)c2cccc(c2)C1=O
Scale Unit: nM
IC50: 3.8

Compound Structure: COc1cccc(C(C)(C)NC[C@@H](O)[C@@H]2Cc3cccc(c3)OCCCCN(C)C(=O)c3cccc(c3)C(=O)N2)c1
Scale Unit: nM
IC50: 5.3

Here is the next item to consider.
Recall the recorded IC50 for COc1cccc(C(C)(C)NC[C@@H](O)[C@@H]2Cc3cccc(c3)OCCCCNC(=O)c3cccc(c3)C(=O)N2)c1 with recombinant P. falciparum PMX (Plasmodium falciparum) and state it.
11.2
